Test system: M aureum SB66
Assay: MIC, micro broth dilution, M. aureum SB66
Assay type: cell-based
Details: Mueller-Hinton broth
The reader will find reported minimal inhibitory concentrations MIC, SB 66 values listed item by item below.
Please reply with the bare figure in µg/mL and do not write the unit itself.

stdin: Any idea what its minimal inhibitory concentrations MIC, SB 66 is? The molecule is CCCOc1ncnc(SC(=S)N(C)C)c1[N+](=O)[O-] [Subst. Nr. 11]
stdout: 1.56

***
stdin: Any idea what its minimal inhibitory concentrations MIC, SB 66 is? The molecule is COc1ncnc(SC(=S)N2CCCC2)c1[N+](=O)[O-] [Subst. Nr. 15]
stdout: 1.56

stdin: Any idea what its minimal inhibitory concentrations MIC, SB 66 is? The molecule is CCN(CC)C(=S)Sc1ncnc(NC2CC2)c1[N+](=O)[O-] [Subst. Nr. 2]
stdout: 12.5

stdin: Any idea what its minimal inhibitory concentrations MIC, SB 66 is? The molecule is CCN(CC)C(=S)Sc1ncnc(NC)c1[N+](=O)[O-] [Subst. Nr. 4]
stdout: 6.24

stdin: Any idea what its minimal inhibitory concentrations MIC, SB 66 is? The molecule is CCN(CC)C(=S)Sc1ncnc(N(C)O)c1[N+](=O)[O-] [Subst. Nr. 5]
stdout: 12.5

stdin: Any idea what its minimal inhibitory concentrations MIC, SB 66 is? The molecule is CNc1ncnc(SC(=S)N(C)C)c1[N+](=O)[O-] [Subst. Nr. 7]
stdout: 6.25

stdin: Any idea what its minimal inhibitory concentrations MIC, SB 66 is? The molecule is CN(C)C(=S)Sc1c(C#N)cc([N+](=O)[O-])cc1[N+](=O)[O-] [Subst. Nr. 9]
stdout: 1.56

stdin: Any idea what its minimal inhibitory concentrations MIC, SB 66 is? The molecule is CN(C)C(=S)Sc1ncnc(N(C)C)c1[N+](=O)[O-] [Subst. Nr. 8]
stdout: 6.25

stdin: Any idea what its minimal inhibitory concentrations MIC, SB 66 is? The molecule is CN(C)c1ncnc(SC(=S)N2CCCC2)c1[N+](=O)[O-] [Subst. Nr. 13]
stdout: 3.12

###

System: Mycobacterium smegmatis SG 987
Test: MIC, micro broth dilution, M. smegmatis SG 987
Type: cell-based
Details: Mueller-Hinton broth
readout_kind: minimal inhibitory concentrations MIC, SG 987 (µg/mL)
Please reply with the bare figure in µg/mL and do not write the unit itself.

stdin: What value of minimal inhibitory concentrations MIC, SG 987 on Mycobacterium smegmatis SG 987 does CCCOc1ncnc(SC(=S)N(C)C)c1[N+](=O)[O-] [Subst. Nr. 11] have?
stdout: 6.25

stdin: What value of minimal inhibitory concentrations MIC, SG 987 on Mycobacterium smegmatis SG 987 does COc1ncnc(SC(=S)N2CCCC2)c1[N+](=O)[O-] [Subst. Nr. 15] have?
stdout: 3.12

stdin: What value of minimal inhibitory concentrations MIC, SG 987 on Mycobacterium smegmatis SG 987 does CCOc1nc(C)nc(SC(=S)N(CC)CC)c1[N+](=O)[O-] [Subst. Nr. 6] have?
stdout: 12.5

stdin: What value of minimal inhibitory concentrations MIC, SG 987 on Mycobacterium smegmatis SG 987 does CNc1ncnc(SC(=S)N2CCCC2)c1[N+](=O)[O-] [Subst. Nr. 12] have?
stdout: 3.12

stdin: What value of minimal inhibitory concentrations MIC, SG 987 on Mycobacterium smegmatis SG 987 does O=[N+]([O-])c1cnc(SC(=S)N2CCCC2)c([N+](=O)[O-])c1 [Subst. Nr. 18] have?
stdout: 6.25

stdin: What value of minimal inhibitory concentrations MIC, SG 987 on Mycobacterium smegmatis SG 987 does CCN(CC)C(=S)Sc1ncnc(NC)c1[N+](=O)[O-] [Subst. Nr. 4] have?
stdout: 6.25

stdin: What value of minimal inhibitory concentrations MIC, SG 987 on Mycobacterium smegmatis SG 987 does CCN(CC)C(=S)Sc1c(C#N)cc([N+](=O)[O-])cc1[N+](=O)[O-] [Subst. Nr. 3] have?
stdout: 12.5

stdin: What value of minimal inhibitory concentrations MIC, SG 987 on Mycobacterium smegmatis SG 987 does COc1ncnc(SC(=S)N(C)C)c1[N+](=O)[O-] [Subst. Nr. 14] have?
stdout: 3.12

stdin: What value of minimal inhibitory concentrations MIC, SG 987 on Mycobacterium smegmatis SG 987 does CCN(CC)C(=S)Sc1ncnc(NC2CC2)c1[N+](=O)[O-] [Subst. Nr. 2] have?
stdout: 6.25

stdin: What value of minimal inhibitory concentrations MIC, SG 987 on Mycobacterium smegmatis SG 987 does CN(C)C(=S)Sc1ncnc(N(C)C)c1[N+](=O)[O-] [Subst. Nr. 8] have?
stdout: 12.5

stdin: What value of minimal inhibitory concentrations MIC, SG 987 on Mycobacterium smegmatis SG 987 does CCN(CC)C(=S)Sc1ncnc(N(C)O)c1[N+](=O)[O-] [Subst. Nr. 5] have?
stdout: 6.25

stdin: What value of minimal inhibitory concentrations MIC, SG 987 on Mycobacterium smegmatis SG 987 does CCOc1nc(C)nc(SC(=S)N2CCCC2)c1[N+](=O)[O-] [Subst. Nr. 10] have?
stdout: 12.5

stdin: What value of minimal inhibitory concentrations MIC, SG 987 on Mycobacterium smegmatis SG 987 does CN(C)c1ncnc(SC(=S)N2CCCC2)c1[N+](=O)[O-] [Subst. Nr. 13] have?
stdout: 3.12

###

System: M aureum SB66
Test: MIC, micro broth dilution, M. aureum SB66
Format: cell-based
Details: Mueller-Hinton broth
Answer f if minimal inhibitory concentrations MIC, SB 66 is under 3 µg/mL, and t if it is 3 µg/mL or more.

# example entries with known answers
stdin: Is minimal inhibitory concentrations MIC, SB 66 for NC(=O)c1cc([N+](=O)[O-])cc([N+](=O)[O-])c1SC(=S)N1CCCCCC1 at or above 3 µg/mL?
stdout: t

stdin: Is minimal inhibitory concentrations MIC, SB 66 for COc1ncnc(SC(=S)N(C)C)c1[N+](=O)[O-] at or above 3 µg/mL?
stdout: f

stdin: Is minimal inhibitory concentrations MIC, SB 66 for CCN(CC)C(=S)Sc1c(C#N)cc([N+](=O)[O-])cc1[N+](=O)[O-] at or above 3 µg/mL?
stdout: t

***
stdin: Is minimal inhibitory concentrations MIC, SB 66 for NC(=O)c1cc([N+](=O)[O-])cc([N+](=O)[O-])c1SC(=S)N1CCCC1 at or above 3 µg/mL?
stdout: t

stdin: Is minimal inhibitory concentrations MIC, SB 66 for O=[N+]([O-])c1cnc(SC(=S)N2CCCC2)c([N+](=O)[O-])c1 at or above 3 µg/mL?
stdout: t

stdin: Is minimal inhibitory concentrations MIC, SB 66 for CNc1ncnc(SC(=S)N2CCCC2)c1[N+](=O)[O-] at or above 3 µg/mL?
stdout: f

stdin: Is minimal inhibitory concentrations MIC, SB 66 for CCOc1nc(C)nc(SC(=S)N(CC)CC)c1[N+](=O)[O-] at or above 3 µg/mL?
stdout: t

stdin: Is minimal inhibitory concentrations MIC, SB 66 for CCOc1nc(C)nc(SC(=S)N2CCCC2)c1[N+](=O)[O-] at or above 3 µg/mL?
stdout: t

###

Tested on: multiresistent staphylococci (MRSA) strain 134/93
Experiment: MIC, micro broth dilution, MRSA 134/93
Format: cell-based
Conditions: Mueller-Hinton broth
The reader will find reported minimal inhibitory concentrations MIC, 134/93 values listed item by item below.
Show the value, then the unit it is measured in.

Past entries and their recorded results:
stdin: Any idea what its minimal inhibitory concentrations MIC, 134/93 is? The compound is CN(C)C(=S)Sc1ncnc(N(C)C)c1[N+](=O)[O-]
stdout: 3.12 µg/mL

stdin: Any idea what its minimal inhibitory concentrations MIC, 134/93 is? The compound is CCN(CC)C(=S)Sc1ncnc(N(C)O)c1[N+](=O)[O-]
stdout: 1.56 µg/mL

stdin: Any idea what its minimal inhibitory concentrations MIC, 134/93 is? The compound is CCN(CC)C(=S)Sc1ncnc(NC2CC2)c1[N+](=O)[O-]
stdout: 1.56 µg/mL

stdin: Any idea what its minimal inhibitory concentrations MIC, 134/93 is? The compound is CCCOc1ncnc(SC(=S)N(C)C)c1[N+](=O)[O-]
stdout: 0.8 µg/mL

stdin: Any idea what its minimal inhibitory concentrations MIC, 134/93 is? The compound is CCN(CC)C(=S)Sc1c(C#N)cc([N+](=O)[O-])cc1[N+](=O)[O-]
stdout: 3.12 µg/mL

stdin: Any idea what its minimal inhibitory concentrations MIC, 134/93 is? The compound is CNc1ncnc(SC(=S)N(C)C)c1[N+](=O)[O-]
stdout: 1.56 µg/mL

Could you now look at the following compound, please?
stdin: Any idea what its minimal inhibitory concentrations MIC, 134/93 is? The compound is CCOc1nc(C)nc(SC(=S)N2CCCC2)c1[N+](=O)[O-]
stdout: 3.12 µg/mL
